Values from patent US11389456B2

- experimental_system: glycolate oxidase (GOX) in HepaRG-CAR cells (Homo sapiens (Human), UniProt Q9UJM8)
- protocol_text: HepaRG-CAR cell-based assay for quantitation of glycolate oxidase inhibition (cellular glycolate flux, GC-MS)
Please respond with reported pIC50 for every item in the list.
As a rule, pIC50 stands for the negative log10 of the concentration, concentration in M.

Can you share its pIC50? I mean this compound: N#Cc1cccc(-c2ccc(Oc3[nH]nnc3C(=O)O)cc2)c1
5.00

Proceed to COc1cccc(-c2ccc(Oc3[nH]nnc3C(=O)O)cc2)c1
5.30

---

- protocol_text: Metabolic stability in human liver microsomal preparation
- Type: in vitro ADME
- condition: pH 7.4; human liver microsomes, NADPH, 37° C., 0-45 min; read-out: Metabolic Stability t1/2
Assign label 1 to entries whose half-life at 1 μM meets or exceeds 9 h; assign label 0 to the rest.

Exam item: decide whether the reported half-life at 1 μM for O=C(O)c1nn[nH]c1Oc1cccc(-c2cc(Cl)cc(Cl)c2)c1 [Example I-302] is at least 9 h.
label 1

Try COc1cccc(-c2ccc(Oc3[nH]nnc3C(=O)O)cc2)c1 [Example I-158] next.
label 1

For O=C(O)c1nn[nH]c1Sc1ccc(Cl)cc1 [Example I-001] then?
label 1

Cool, now O=C(O)c1nn[nH]c1Oc1cccc(-c2ccncc2)c1 [Example I-260]
label 1

Now this one: Cc1cc(Oc2[nH]nnc2C(=O)O)ccc1Cl [Example I-258]
label 1

Continue with CC(C)=Cc1ccc(Oc2[nH]nnc2C(=O)O)cc1 [Example I-287]
label 0

Entry CCC(CC)c1ccc(Oc2[nH]nnc2C(=O)O)cc1 [Example I-272] please
label 0

Also Cc1ccc(-c2cccc(Oc3[nH]nnc3C(=O)O)c2)cc1 [Example I-251] , if possible.
label 0

Same question for C=Cc1ccc(Oc2[nH]nnc2C(=O)O)cc1 [Example I-285] please.
label 1

Request: O=C(O)c1nn[nH]c1Oc1ccc(C2CCC2)cc1 [Example I-275]
label 0

// same read-out, input: CS(=O)(=O)c1ccc(-c2ccc(Oc3[nH]nnc3C(=O)O)cc2)cc1 [Example I-167]
label 1

Query O=C(O)c1nn[nH]c1Oc1cccc(-c2ccc(Cl)cc2)c1 [Example I-252] next
label 0

Subsequent entry: C#Cc1cccc(Oc2[nH]nnc2C(=O)O)c1 [Example I-288]
label 1

Now this one: Cc1ccc(-c2ccc(Sc3[nH]nnc3C(=O)O)cc2)cc1 [Example I-129]
label 0

Input COc1ccc(-c2ccc(Oc3[nH]nnc3C(=O)O)cc2)cc1OC [Example I-270]
label 1

Further, for O=C(O)c1nn[nH]c1Oc1cccc(-c2ccccc2F)c1 [Example I-254] ?
label 0

Same question for CC(C)Cc1ccc(Oc2[nH]nnc2C(=O)O)cc1 [Example I-299] please.
label 0

Would you kindly repeat that for CCC(CC)c1cccc(Oc2[nH]nnc2C(=O)O)c1 [Example I-276] ?
label 0

Record: N#Cc1cccc(-c2ccc(Oc3[nH]nnc3C(=O)O)cc2)c1 [Example I-256]
label 1

// next record O=C(O)c1nn[nH]c1Oc1cccc(S(F)(F)(F)(F)F)c1 [Example I-269]
label 1

Then what about the molecule O=C(O)c1[nH]nnc1Oc1ccc(-c2ccc(Cl)c(Cl)c2)cc1 [Example I-171] ?
label 0

How about this molecule: CS(=O)(=O)c1ccc(-c2cccc(Oc3[nH]nnc3C(=O)O)c2)cc1 [Example I-257]
label 1

Now this one: CCCC(C)c1ccc(Oc2[nH]nnc2C(=O)O)cc1 (stereo not shown) [Example I-273]
label 0

# iterate: O=C(O)c1nn[nH]c1Oc1cncc(-c2ccccc2)c1 [Example I-262]
label 1

For O=C(O)c1[nH]nnc1Oc1ccc(Cl)c(Cl)c1 [Example I-050] then?
label 1

Same read-out for O=C(O)c1nn[nH]c1Oc1ccc(-c2ccccc2)nc1 [Example I-263] ?
label 1

Entry to check: Cc1cc(Oc2[nH]nnc2C(=O)O)ccc1Br [Example I-037]
label 1

Let us now turn to O=C(O)c1nn[nH]c1Oc1cccc(-c2ccc3ccccc3c2)c1 [Example I-178]
label 0

Try O=C(O)c1nn[nH]c1Oc1cccc(-c2cccnc2)c1 [Example I-259] next.
label 1

Request: CCCC(C)c1cccc(Oc2[nH]nnc2C(=O)O)c1 (stereo not shown) [Example I-277]
label 0

Quick one: O=C(O)c1nn[nH]c1Oc1ccc(C2CC2)cc1 [Example I-294]
label 0

Try the molecule COc1ccc(-c2cccc(Oc3[nH]nnc3C(=O)O)c2)cc1 [Example I-250]
label 0

Same question for O=C(O)c1nn[nH]c1Oc1cccc(-c2cccc(Cl)c2)c1 [Example I-253] please.
label 0

Here is the next molecule: O=C(O)c1nn[nH]c1Oc1ccc(Cl)cc1 [Example I-033]
label 1

---

- protocol_text: Metabolic stability in human liver microsomal preparation
- Type: in vitro ADME
- condition: pH 7.4; human liver microsomes, NADPH, 37° C.
recorded_metric: CLint scaled at 1 μM (mL/min/kg)
Write the value in mL/min/kg as a bare number.

Please report the recorded CLint scaled at 1 μM for CC(C)=Cc1ccc(Oc2[nH]nnc2C(=O)O)cc1 [Example I-287] .
13.4

// same read-out, input: O=C(O)c1nn[nH]c1Sc1ccc2ccccc2c1 [Example I-031]
2.21

Another compound to check: CS(=O)(=O)c1ccc(-c2cccc(Oc3[nH]nnc3C(=O)O)c2)cc1 [Example I-257]
1.53

Follow-up entry: O=C(O)c1[nH]nnc1Oc1ccc(C2CCCCC2)cc1 [Example I-266]
26.4

Also Cc1ccc(-c2cccc(Oc3[nH]nnc3C(=O)O)c2)cc1 [Example I-251] , if possible.
17.7

Entry to check: CCC(CC)c1cccc(Oc2[nH]nnc2C(=O)O)c1 [Example I-276]
5.95

Now the compound N#Cc1cccc(-c2ccc(Oc3[nH]nnc3C(=O)O)cc2)c1 [Example I-256]
0.4

Ok, now COc1cc(-c2ccc(Oc3[nH]nnc3C(=O)O)cc2)ccc1F [Example I-271]
3.49

Could you do the same for CCCC(C)c1cccc(Oc2[nH]nnc2C(=O)O)c1 (stereo not drawn) [Example I-277] , please?
8.56

Then what about the compound C#Cc1cccc(Oc2[nH]nnc2C(=O)O)c1 [Example I-288] ?
3.11

Same lookup for O=C(O)c1nn[nH]c1Oc1cccc(C2CCCCC2)c1 [Example I-268] , please.
84.2

Cool, now O=C(O)c1nn[nH]c1Oc1cccc(-c2ccc(Cl)cc2)c1 [Example I-252]
7.66

O=C(O)c1nn[nH]c1Oc1cncc(-c2cccnc2)c1 [Example I-264] ?
0.17

Same question, O=C(O)c1nn[nH]c1Oc1cccc(-c2ccncc2)c1 [Example I-260] this time
2.81

Next compound up: O=C(O)c1nn[nH]c1Oc1ccc(C2CCC2)cc1 [Example I-275]
18.3

How about this compound: CC(C)Cc1ccc(Oc2[nH]nnc2C(=O)O)cc1 [Example I-299]
11.3

Can you check CCCC(C)c1ccc(Oc2[nH]nnc2C(=O)O)cc1 (stereo not drawn) [Example I-273] next?
35.2

// next record CC(C)=Cc1cccc(Oc2[nH]nnc2C(=O)O)c1 [Example I-286]
15.1

And then O=C(O)c1[nH]nnc1Oc1ccc(Cl)c(Cl)c1 [Example I-050] , what is it?
2.47

Please do the same for CS(=O)(=O)c1ccc(-c2ccc(Oc3[nH]nnc3C(=O)O)cc2)cc1 [Example I-167] as well.
1.7

Lookup Cc1ccc(-c2ccc(Sc3[nH]nnc3C(=O)O)cc2)cc1 [Example I-129]
21.6

O=C(O)c1nn[nH]c1Oc1cccc(C2CCC2)c1 [Example I-279] , same question.
4.98

What about O=C(O)c1nn[nH]c1Oc1ccc(-c2ccccc2)nc1 [Example I-263] ?
2.48

Please give the result for O=C(O)c1nn[nH]c1Oc1ccc(-c2ccc3ccccc3c2)cc1 [Example I-177] too.
3.07

Queued: O=C(O)c1nn[nH]c1Oc1cccc(-c2cccc(Cl)c2)c1 [Example I-253]
5.51

Thanks! And O=C(O)c1nn[nH]c1Oc1cccc(-c2ccccc2F)c1 [Example I-254] ?
3.82

Also check O=C(O)c1nn[nH]c1Oc1ccc(C2CC2)cc1 [Example I-294]
3.4

// same read-out, input: O=C(O)c1nn[nH]c1Oc1ccc(-c2ccccc2F)cc1 [Example I-174]
2.48

Param item: O=C(O)c1nn[nH]c1Oc1ccc(-c2ccccc2)cc1 [Example I-150]
3.04

Same read-out for O=C(O)c1nn[nH]c1Oc1ccc(-c2ccc3c(c2)OCO3)cc1 [Example I-304] ?
5.47

Also O=C(O)c1nn[nH]c1Oc1cccc(-c2cccnc2)c1 [Example I-259] , if possible.
0.45

---

- experimental_system: recombinant full-length human hydroxyacid oxidase 1 (HAO1), the equivalent of hGOX (Homo sapiens (Human))
- Sequence (Q9UJM8 whole entry): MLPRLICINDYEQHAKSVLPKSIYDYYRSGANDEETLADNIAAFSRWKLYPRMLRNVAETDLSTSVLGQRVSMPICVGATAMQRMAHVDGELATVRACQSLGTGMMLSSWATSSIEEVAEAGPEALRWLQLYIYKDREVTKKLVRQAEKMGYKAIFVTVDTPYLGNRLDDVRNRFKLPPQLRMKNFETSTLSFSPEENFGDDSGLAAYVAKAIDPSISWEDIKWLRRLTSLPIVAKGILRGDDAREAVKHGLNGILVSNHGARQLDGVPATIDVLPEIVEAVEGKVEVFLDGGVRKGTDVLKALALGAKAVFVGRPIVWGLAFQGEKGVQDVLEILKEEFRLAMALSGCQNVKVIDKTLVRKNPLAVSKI
- protocol_text: In-vitro human glycolate oxidase (hGOX) assay (Amplex red/HRP fluorescence)
- Assay type: biochemical
- condition: 12.5 nM HAO1, 85 μM glycolate, 2.5% DMSO; read-out: IC50
pIC50: −log10 of the molar value.
Response key: Satisfied means pIC50 >= 7; Not satisfied means pIC50 < 7.

Please tell me: is the molecule CCOC(=O)c1nn[nH]c1Nc1ccc(OC)cc1 [Example I-289] at or over 7 in terms of pIC50?
Not satisfied

Ok, now Cc1ccc(Nc2[nH]nnc2C(=O)O)cc1 [Example I-292]
Not satisfied

Now consider CCOC(=O)c1nn[nH]c1Sc1ccccc1F [Example I-014] and answer again.
Not satisfied

Repeat with COc1cc(OC)cc(-c2cccc(Oc3[nH]nnc3C(=O)O)c2)c1 [Example I-303]
Not satisfied

What would you report for Cc1ccccc1Sc1[nH]nnc1C(=O)O [Example I-010] ?
Not satisfied

Try the molecule O=C(O)c1nn[nH]c1Oc1ccc(Cl)c(F)c1 [Example I-308]
Satisfied
